compounds and their reported inhibition
Protocol details: H1N1 influenza NS1A inhibitors, functional cell based assay (AID 504329)
Measurement parameters: percent inhibition, at 12.5 µM, stronger effect = higher value
About 1,000 (0.29%) of roughly 340,000 compounds were called active. The list is a sample of the results. Entries with a potency or affinity are not part of this list.

- Compound: "Nc1nc(-c2ccccc2)c(-c2ccccc2)s1"
  inhibition, %: 4.73
- Compound: "O=C(CCN1C(=O)c2ccccc2S1(=O)=O)N1CCN(c2ccccc2F)CC1"
  inhibition, %: -1.99
- Compound: "COc1ccc(CC(=O)Nc2nc(-c3ccncc3)cs2)cc1"
  inhibition, %: 3.49
- Compound: "O=C(O)CP(=O)(c1ccccc1)c1ccccc1"
  inhibition, %: -20.8
- Compound: "Cc1cc(=O)oc2cc(OCC(=O)N(C)C3CCS(=O)(=O)C3)c(Cl)cc12 (stereo unspecified)"
  inhibition, %: -3.85
- Compound: "CCc1nn2cc(C(=O)c3ccccc3O)cnc2c1-c1ccc(F)cc1"
  inhibition, %: 14.5
- Compound: "O=C(O)c1ccc(NC2=C/C(=N/S(=O)(=O)c3ccccc3)c3ccccc3C2=O)cc1"
  inhibition, %: 15.2
- Compound: "CNc1ccc(Oc2nc([N+](=O)[O-])nn2C)cc1"
  inhibition, %: -2.73
- Compound: "CCc1ccc(NSc2ccccc2[N+](=O)[O-])cc1"
  inhibition, %: 28.4
- Compound: "COc1ccc(F)cc1S(=O)(=O)n1cnc2ccccc21"
  inhibition, %: 2.94
- Compound: "CC(=O)Nc1ccc(S(=O)(=O)N(C)CC(=O)OCC(=O)c2cc(C)n(-c3ccc4c(c3)OCO4)c2C)cc1"
  inhibition, %: 4.97
